- tgt: human 5-hydroxytryptamine-2C (h5-HT2C) receptor (Homo sapiens, UniProt P28335)
property name: Ki (nM)
Express the result in nM but write the number alone.

Record CSc1ccc2c(c1)C(N1CCN(C)CC1)Cc1ccccc1S2 (stereo not shown) [Methiothepin] . Reported Ki: 4.6

* * *

- tgt: human serotonin 5-HT2C receptor (Homo sapiens, UniProt P28335)
- Sequence (P28335 33-458): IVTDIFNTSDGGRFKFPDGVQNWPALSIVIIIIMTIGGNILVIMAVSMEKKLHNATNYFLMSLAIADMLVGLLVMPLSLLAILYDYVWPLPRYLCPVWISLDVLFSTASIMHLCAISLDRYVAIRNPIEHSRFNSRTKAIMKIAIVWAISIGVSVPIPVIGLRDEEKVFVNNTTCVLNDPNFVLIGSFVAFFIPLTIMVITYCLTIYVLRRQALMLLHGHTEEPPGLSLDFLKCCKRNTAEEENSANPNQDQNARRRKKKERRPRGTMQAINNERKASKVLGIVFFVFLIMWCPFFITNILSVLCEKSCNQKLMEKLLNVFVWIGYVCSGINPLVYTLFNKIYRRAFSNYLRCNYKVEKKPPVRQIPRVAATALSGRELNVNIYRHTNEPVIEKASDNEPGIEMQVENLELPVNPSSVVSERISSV
property name: pKd
Scale explanation: pKd corresponds to minus log10 of a concentration expressed in moles per litre.

Record COc1cc(CC(C)N)c(OC)cc1I (stereo not shown) [[^125I] DOI] . Reported pKd: 9.40
